# target.entity: glucosylceramide synthase (GCS) (Canis lupus familiaris)
# Sequence (A0A8I3MXG6 1-394): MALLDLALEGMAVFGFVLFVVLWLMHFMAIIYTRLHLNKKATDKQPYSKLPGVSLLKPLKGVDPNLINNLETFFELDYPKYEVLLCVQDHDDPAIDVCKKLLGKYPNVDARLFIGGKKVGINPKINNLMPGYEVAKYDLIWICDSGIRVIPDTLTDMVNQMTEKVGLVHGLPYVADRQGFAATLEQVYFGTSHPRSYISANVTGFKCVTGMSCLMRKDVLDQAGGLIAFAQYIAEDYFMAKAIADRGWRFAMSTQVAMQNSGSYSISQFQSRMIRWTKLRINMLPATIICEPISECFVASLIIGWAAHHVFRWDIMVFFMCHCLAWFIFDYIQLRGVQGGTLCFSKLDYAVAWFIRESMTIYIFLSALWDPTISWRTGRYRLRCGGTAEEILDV
# test.method.notes: GCS Enzymatic Assay (MDCK lysates)
# run.parameters: MDCK cell lysate, C6-NBD-Ceramide, 37° C. for 1 hour, LC/MS; read-out: Assay 1 (Enzyme Assay; MDCK lysates) IC50
pIC50: −log10 of the molar value.
outcome.measure: pIC50

Answered examples (6):
Reported pIC50 ( `O=C(N[C@H](CN1CCC1)[C@H](O)c1ccc(OC2CC2)cc1)C1=NOCc2cc(-c3ccc(F)cc3)ccc21` ) = 7.00 to 8.00

Reported pIC50 ( `O=C(N[C@H](CN1CCC1)[C@H](O)c1ccc(OC2CC2)c(Cl)c1)C1=NOCc2c1ccc1cc(F)ccc21` ) = > 8.00

Reported pIC50 ( `O=C(N[C@H](CN1CCCC1)[C@H](O)c1ccc(OC2CC2)cc1)C1=NOCc2cc(-c3ccc(Cl)s3)ccc21` ) = > 8.00

Reported pIC50 ( `O=C(N[C@H](CN1CCCC1)[C@H](O)c1ccc(OC2CC2)c(Cl)c1)C1=NOCc2cc3ccccc3cc21` ) = > 8.00

Reported pIC50 ( `O=C(N[C@H](CN1CCCC1)[C@H](O)c1ccc(OC2CC2)c(Cl)c1)C1=NOCc2c1sc1cc(Cl)ccc21` ) = 7.00 to 8.00

Reported pIC50 ( `O=C(N[C@H](CN1CCCC1)[C@H](O)c1ccc(OC2CC2)c(F)c1)C1=NOCc2cc(-c3ccc(F)cc3)ccc21` ) = > 8.00

# evaluate next
Reported pIC50 ( `O=C(N[C@H](CN1CCC1)[C@H](O)c1ccc(OC2CC2)cc1)C1=NOCc2cc(-c3ccc(Cl)s3)ccc21` ) = 7.00 to 8.00
